Ref: ChEMBL document CHEMBL4513141

- Tested on: Cryptococcus neoformans
- Stated conditions: Concentration 20 uM; ASSAY_TEST Inhibition of Fungal Growth; detection method Resazurin; Absorption (OD600-OD570); plate type 384well; NBS; CORNING #3640
- Description: Antifungal activity against Cryptococcus neoformans H99 ATCC 208821 (CO-ADD:FG_002); MIC in YNB media using NBS plates, by Resazurin OD(600-570)
Entries with a potency or affinity are not part of this list.
Measurement name: Inhibition (%)
Respond numerically; units are % and should not be typed.

Prompt: # Inhibition lookup, item CC(=CCC1=C(C)C(=O)c2ccccc2C1=O)CCCC(C)CCCC(C)CCCC(C)C (configuration not stated)
Response: 1.23

Prompt: Please answer likewise for OCc1cc(C(O)CNCCCCCCOCCCCc2ccccc2)ccc1O (configuration not stated)
Response: -8.37

Prompt: Please answer likewise for CN(CCOc1ccc(NS(C)(=O)=O)cc1)CCc1ccc(NS(C)(=O)=O)cc1 [DOFETILIDE]
Response: -1.31

Prompt: Please answer likewise for COc1ccnc(C[S+]([O-])c2nc3cc(OC(F)F)ccc3[n-]2)c1OC.O.[Na+] (configuration not stated) [PANTOPRAZOLE SODIUM]
Response: -26.37

Prompt: Please answer likewise for CC(C)c1nc(CN(C)C(=O)N[C@H](C(=O)N[C@@H](Cc2ccccc2)C[C@H](O)[C@H](Cc2ccccc2)NC(=O)OCc2cncs2)C(C)C)cs1
Response: -5.87

Prompt: Please answer likewise for CN(CCO)CC(O)Cn1cnc2c1c(=O)n(C)c(=O)n2C.O=C(O)c1cccnc1 (configuration not stated) [XANTHINOL NIACINATE]
Response: -2.36

Prompt: Please answer likewise for CC(=O)OCC(=O)[C@@]1(O)CC[C@H]2[C@@H]3CCC4=CC(=O)C=C[C@]4(C)[C@H]3[C@@H](O)C[C@@]21C [PREDNISOLONE ACETATE]
Response: -1.37

Prompt: Please answer likewise for CN(C)C(=O)Oc1ccc[n+](C)c1.[Br-] [PYRIDOSTIGMINE BROMIDE]
Response: -8.97

Prompt: Please answer likewise for CCC[C@@H]1C[C@@H](C(=O)N[C@@H]([C@H]2O[C@H](SC)[C@H](O)[C@@H](O)[C@H]2O)[C@@H](C)O)N(C)C1.Cl.O [LINCOMYCIN HYDROCHLORIDE]
Response: -3.42

Prompt: Please answer likewise for CCCC(CCC)C(=O)O
Response: -4.42

Prompt: Please answer likewise for CCCCNC(=O)NS(=O)(=O)c1ccc(C)cc1 [TOLBUTAMIDE]
Response: 0.26

Prompt: Please answer likewise for Oc1ncc(F)cn1
Response: -8.59

Prompt: Please answer likewise for CCN(CC)CC1CCCCN1CC(=O)N1c2ccccc2C(=O)Nc2cccnc21 (configuration not stated)
Response: 3.45

Prompt: Please answer likewise for CN1CCC(=C2c3ccccc3CC(=O)c3sccc32)CC1.O=C(O)/C=C/C(=O)O [KETOTIFEN FUMARATE]
Response: -3.16

Prompt: Please answer likewise for Cc1ccc(S(=O)(=O)NC(=O)NN2CCCCCC2)cc1 [TOLAZAMIDE]
Response: -7.48

Prompt: Please answer likewise for N[C@@H](Cc1cc(I)c(Oc2cc(I)c(O)c(I)c2)c(I)c1)C(=O)O
Response: -5.43

Prompt: Please answer likewise for Nc1nc(Cl)nc2c1ncn2[C@@H]1O[C@H](CO)[C@@H](O)[C@H]1O
Response: 0.98
